Biological target: Protein Wnt-3a (Mus musculus)
Sequence (P27467 whole entry): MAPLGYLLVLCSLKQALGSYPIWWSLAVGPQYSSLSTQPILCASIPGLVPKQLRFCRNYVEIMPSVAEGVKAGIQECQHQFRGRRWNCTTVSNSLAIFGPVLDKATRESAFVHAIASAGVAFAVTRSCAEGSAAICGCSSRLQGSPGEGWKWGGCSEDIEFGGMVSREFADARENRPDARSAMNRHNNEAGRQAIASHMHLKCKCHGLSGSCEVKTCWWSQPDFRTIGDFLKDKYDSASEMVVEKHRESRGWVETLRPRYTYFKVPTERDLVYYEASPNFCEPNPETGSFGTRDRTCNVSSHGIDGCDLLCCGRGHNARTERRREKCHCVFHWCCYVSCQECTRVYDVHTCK
Assay: antagonism of Wnt3a pathway luciferase reporter – Wnt-LIGHT cells, luminescence, selectivity assay for Gli-SUFU antagonist project, dose response (AID 651570);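 further: Wnt-LIGHT reporter cells stimulated with conditioned medium from Wnt3a-producing cells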
Type: functional
Conditions: read-out: IC50_Mean
Activity calls are given as the source filed them.
Outcomes: yes (1) for active, no (0) for inactive

compound | test-system | assigned-category
CNc1nc(NCc2ccccc2)c2ccccc2n1 | Protein Wnt-3a (Mus musculus) | no (0)
COc1ccc(Cn2c(-c3ccc(Cl)cc3)c[n+]3ccccc23)cc1 | Protein Wnt-3a (Mus musculus) | no (0)
CCN(CC)S(=O)(=O)c1ccc(S(=O)(=O)N2CCCC(C(=O)NC3CC3)C2)cc1 (centres undefined) | Protein Wnt-3a (Mus musculus) | yes (1)
COc1ccc(C(C(=O)NC2CCCCC2)N(C(=O)CCl)c2ccc(Cl)cc2)cc1 (centres undefined) | Protein Wnt-3a (Mus musculus) | yes (1)

* * *

Target: Sentrin-specific protease 8 (Homo sapiens);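 further: luminescence read-out of SENP8 inhibition, dose-response confirmation following an ultra-high-throughput screen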
Sequence (Q96LD8 whole entry): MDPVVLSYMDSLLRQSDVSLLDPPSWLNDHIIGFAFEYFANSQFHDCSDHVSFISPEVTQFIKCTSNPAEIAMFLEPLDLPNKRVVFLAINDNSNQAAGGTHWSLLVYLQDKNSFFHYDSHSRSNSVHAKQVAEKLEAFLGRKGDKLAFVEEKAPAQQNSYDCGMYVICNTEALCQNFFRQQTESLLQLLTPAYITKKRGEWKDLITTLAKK
Type: functional
Calls of active or inactive are those of the source.
Measured IC50, listed per entry.
endpoint-label: IC50

compound | value-measured
O=C(OCC(=O)N1CCN(c2ccccc2)CC1)c1ccc([N+](=O)[O-])s1 | 5.37 µM (active)
CCCCCc1ccc(-c2ccc(/C=C/C(=O)O)cc2)nc1 | 8.8 µM (active)
Cc1ccccc1NS(=O)(=O)c1cccc(C(=O)Nc2cccc(C(=O)O)c2)c1 | 23.7 µM (active)
COC(=O)c1ccccc1NC1=C/C(=N\S(=O)(=O)c2cccs2)c2ccccc2C1=O | 41.2 µM (active)
O=C(c1ccccc1)c1ccc(Cn2cc(-c3ccccc3)nn2)cc1 | 23.9 µM (active)
Cc1cc(C)c[n+](C2=C([N-]S(=O)(=O)c3cccs3)C(=O)c3ccccc3C2=O)c1 | 33.4 µM (active)
C=C(C)C(O)CC/C(C)=C/Cc1c(O)ccc(C(=O)/C=C/c2ccc(O)cc2)c1O (configuration not stated) [XANTHOANGELOL B] | 5.08 µM (active)

* * *

In this section we review reported AC50 values for a set of compounds.
Target: Cytochrome P450 2C19 (Homo sapiens, UniProt P33261)
Sequence (P33261 whole entry): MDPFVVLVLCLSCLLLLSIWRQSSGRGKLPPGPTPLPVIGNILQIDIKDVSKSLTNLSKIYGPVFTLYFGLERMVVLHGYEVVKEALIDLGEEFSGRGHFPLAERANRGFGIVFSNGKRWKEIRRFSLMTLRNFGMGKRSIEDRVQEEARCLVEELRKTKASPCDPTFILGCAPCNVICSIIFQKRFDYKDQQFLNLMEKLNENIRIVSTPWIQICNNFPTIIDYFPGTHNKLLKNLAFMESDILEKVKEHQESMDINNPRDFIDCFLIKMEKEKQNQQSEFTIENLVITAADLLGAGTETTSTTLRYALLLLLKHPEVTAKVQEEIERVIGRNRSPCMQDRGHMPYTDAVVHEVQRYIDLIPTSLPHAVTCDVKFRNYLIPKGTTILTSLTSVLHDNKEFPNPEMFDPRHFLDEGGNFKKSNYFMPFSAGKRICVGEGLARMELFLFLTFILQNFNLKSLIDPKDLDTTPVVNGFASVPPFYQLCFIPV
Assay: Cytochrome panel assay with activity outcomes. Panel member name: p450-cyp2c19 Compounds with AC50 equal or less than 10 uM are considered active
Type: functional
Settings: read-out: AC50
endpoint-label: AC50

compound | test-system | endpoint-label | value-measured
CC(C)CC(=O)Nc1sc2c(c1C#N)CC(C)(C)NC2(C)C | Cytochrome P450 2C19 (Homo sapiens, UniProt P33261) | AC50 | 28.2 µM (inconclusive)
CN(C)CCCc1cc(C(=O)Nc2ccc(-c3ccncc3)cc2)ccc1O | Cytochrome P450 2C19 (Homo sapiens, UniProt P33261) | AC50 | 31.6 µM (inconclusive)
Cc1cc(N2CCN(c3nc4ccccc4s3)CC2)n2ncnc2n1 | Cytochrome P450 2C19 (Homo sapiens, UniProt P33261) | AC50 | 14.1 µM (inconclusive)
O=C(Nc1ccc(Br)cc1)c1ccc(CSC2=NCCS2)cc1 | Cytochrome P450 2C19 (Homo sapiens, UniProt P33261) | AC50 | 11.2 µM (inconclusive)
COc1ccc(Oc2nc(C)cc(C)c2S(C)(=O)=O)cc1 | Cytochrome P450 2C19 (Homo sapiens, UniProt P33261) | AC50 | 25.1 µM (inconclusive)
Cc1ccc(C2C(C(=O)c3sc(C)nc3C)=C(O)C(=O)N2CCN2CCOCC2)o1 (stereo unspecified) | Cytochrome P450 2C19 (Homo sapiens, UniProt P33261) | AC50 | 0.00562 µM (inconclusive)

* * *

Biological target: Cytochrome P450 2C19 (Homo sapiens)
Assay: Cytochrome panel assay with activity outcomes. Panel member name: p450-cyp2c19 Compounds with AC50 equal or less than 10 uM are considered active
Type: functional
Conditions: read-out: AC50
endpoint-label: AC50

input-smiles | endpoint-label | value-measured
COc1ccc(Oc2ncc3ncc(=O)n(C4CC4)c3n2)cc1 | AC50 | 0.316 µM (inconclusive)
COC(=O)N1CCC[C@@]2(CCN(C(c3ccccc3)c3ccccc3)C2)C1 | AC50 | 39.8 µM (inconclusive)
CCNc1ncc2nc(-c3ccccc3)c(=O)n(Cc3cccc(OC)c3)c2n1 | AC50 | 39.8 µM (inconclusive)
O=C(c1ccco1)N1CCN(C(=O)C2(S(=O)(=O)c3ccc(Cl)cc3)CC2)CC1 | AC50 | 28.2 µM (inconclusive)
COCC(=O)N1CCC2(CC1)CN(Cc1cc(C(F)(F)F)cc(C(F)(F)F)c1)C2 | AC50 | 20 µM (inconclusive)
Cc1ccccc1NS(=O)(=O)c1ccc2ncc(C(=O)NCCCN3CCOCC3)c(O)c2c1 | AC50 | 25.1 µM (inconclusive)

* * *

Molecular target: Steroidogenic factor 1 (Homo sapiens, UniProt Q13285)
Sequence (Q13285 whole entry): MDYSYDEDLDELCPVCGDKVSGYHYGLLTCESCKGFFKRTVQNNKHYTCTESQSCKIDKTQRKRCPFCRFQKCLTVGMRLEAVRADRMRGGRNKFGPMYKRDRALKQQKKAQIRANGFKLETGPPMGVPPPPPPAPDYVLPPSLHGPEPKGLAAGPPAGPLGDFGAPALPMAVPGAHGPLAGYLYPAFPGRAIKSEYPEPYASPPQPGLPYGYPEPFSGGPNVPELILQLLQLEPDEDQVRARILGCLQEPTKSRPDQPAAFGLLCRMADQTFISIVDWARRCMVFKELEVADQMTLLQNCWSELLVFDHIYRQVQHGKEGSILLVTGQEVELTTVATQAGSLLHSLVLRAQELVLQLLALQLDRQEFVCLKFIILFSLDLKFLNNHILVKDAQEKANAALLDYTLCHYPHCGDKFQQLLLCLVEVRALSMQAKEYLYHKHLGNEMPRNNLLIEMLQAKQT
Test: Counterscreen for inverse agonists of the liver receptor homolog-1 (LRH-1; NR5A2): Luminescence-based cell-based high throughput dose response assay to identify inverse agonists of the Steroidogenic Factor 1 Nuclear Receptor (SF1; NR5A1).
Format: functional
Calls of active or inactive are those of the source.
Outcome codes: active, inactive

compound | test-system | assigned-category
O=C(Nc1ccc(Cc2ccncc2)cc1)c1cccc([N+](=O)[O-])c1 | Steroidogenic factor 1 (Homo sapiens, UniProt Q13285) | active
CCc1cc(=O)oc2c(C)c(OCC(=O)NCCCN3CCOCC3)ccc12 | Steroidogenic factor 1 (Homo sapiens, UniProt Q13285) | inactive
Cc1cc(NC(=O)c2ccc([N+](=O)[O-])o2)ccc1NC(=O)c1ccco1 | Steroidogenic factor 1 (Homo sapiens, UniProt Q13285) | active
CC(O)(c1cccnc1)c1nc(-c2cccc(C#N)c2)cs1 (centres undefined) | Steroidogenic factor 1 (Homo sapiens, UniProt Q13285) | inactive

* * *

Assay: loss of viability in HepG2 cells – cell-based, CellTiter-Glo, cherry-picked, cytotoxicity control for Shn3 inhibitor project, dose response (AID 624134)
Type: functional
The source made the active and inactive calls.
Documented AC50 across a set of compounds

compound | AC50
N=C1S/C(=C\c2ccc(-c3cccc(Cl)c3)o2)C(=O)N1c1nccs1 | 13.7 µM (active)
CCCC(=O)NC(c1ccc(OC)cc1)c1ccc2cccnc2c1O (centres undefined) | 2.33 µM (active)
Cc1cc(O)c(C(C)C)cc1C1(c2cc(C(C)C)c(O)cc2C)OC(=O)c2ccccc21 | 18.8 µM (active)
CC(C)CCOc1cccc(OCC(=O)Nc2ccncc2)c1 | 48.5 µM (active)

* * *

Reported EC50 by item:
Assay: NIH3T3 cell viability loss – ATP luminescence, mouse fibroblasts, counter-screen, dose response (AID 2010);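 further: cells exposed to compound for about 90 hours before reading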
Type: functional, cell-based
Calls of active or inactive are those of the source.
endpoint-label: EC50

molecule | value-measured
O=C(Nc1ccc(Cl)c(Cl)c1)OCc1cccnc1 | > 30 µM (not active)
Fc1ccc(N2CCN(c3ncnc4c3nnn4Cc3ccccc3Cl)CC2)cc1 | > 60 µM (inconclusive)
Cc1ccc(CNC(=O)CCC2CCCN(Cc3cccc4ncccc34)C2)o1 (configuration not stated) | > 60 µM (inconclusive)
O=C(Nc1ccccc1N1CCN(C(=O)c2ccc(Cl)cc2)CC1)c1ccc([N+](=O)[O-])o1 | 37.2 µM (active)
C/C(=C\C(=O)c1ccccc1)Nc1ccc(N2CCOCC2)cc1 | > 60 µM (not active)
CN(C)CCCn1c(=O)n(CCc2ccccc2)c(=O)c2c3c(sc21)CCCCC3 | 36.1 µM (active)
O=C(NCC(c1ccco1)N1CCCC1)c1ccccc1Sc1ccc(C(F)(F)F)cc1[N+](=O)[O-] (configuration not stated) | > 60 µM (not active)

* * *

Entries and their measured EC50 follow.
Experiment: Luminescence Cell-Based Dose Response HTS to Identify Inhibitors of 5'UTR Stem-Loop Driven Prion Protein mRNA Translation in H4 Neuroglioblastoma Cells. [Related pubchem assays: 1827 (Project Summary), 1813 (Primary HTS)]
Format: functional
Calls of active or inactive are those of the source.

compound | EC50
COc1cccc(Cn2c(-c3nonc3N)nc3ccccc32)c1 | 24.7 µM (active)
CC(C)n1cc(CN2CCCC(C(=O)Nc3cccc(-c4cc5ccccc5[nH]4)c3)C2)cn1 (centres undefined) | > 120 µM (not active)
CCc1ccn2cc(-c3ccc4c(c3)OCO4)nc2c1 | < 0.1 µM (active)
CCCCCn1c(SCCCC)nc2c1c(=O)[nH]c(=O)n2C | > 120 µM (not active)
CCc1cc2c(Sc3nc4ccccc4s3)ncnc2s1 | 16.3 µM (active)
CCOc1ccccc1NC(=O)CCn1cccc1 | > 120 µM (not active)
COc1ccc(NC(=O)CNC(=O)Cn2c(C)cc3ccccc3c2=O)c(OC)c1 | > 120 µM (not active)
COC(=O)c1cccc(NC(=O)NC(=O)c2ccccc2Cl)c1 | 2.84 µM (active)
COC(=O)Cc1csc(N/C=C2/C(=O)N(c3cccc(C(F)(F)F)c3)C(=O)c3ccccc32)n1 | > 120 µM (not active)
